Assay: Thermodynamic solubility of the compound
Assay type: physicochemical
Settings: read-out: Therm_solubility
readout: solubility thermodynamic (µg/mL)
The response must be a number in µg/mL with no trailing unit.

Problem: Entry CC1CCN([C@H](c2ccc(F)cc2)c2ccc([C@@H](C)C(=O)O)cc2-c2ccc(C(F)(F)F)cc2)CC1.Cl needs its solubility thermodynamic filled in; supply it.
Result: 20

###

Assay: Plasma clearance in rat at 1 mg/kg, iv
Format: ADME, organism-based
Parameters: dose 1 mg/kg, route intravenous
readout: clearance (mL/min/kg)
The response must be a number in mL/min/kg with no trailing unit.

Problem: Entry CC1CCN([C@H](c2ccc(F)cc2)c2ccc([C@@H](C)C(=O)O)cc2-c2ccc(C(F)(F)F)cc2)CC1.Cl needs its clearance filled in; supply it.
Result: 1.5

###

Assay: Plasma clearance in cynomolgus monkey at 1 mg/kg, iv
Type: ADME, organism-based, Macaca fascicularis
Design: dose 1 mg/kg, route intravenous
readout: clearance (L/h/kg)
The response must be a number in L/h/kg with no trailing unit.

Problem: Entry CC1CCN([C@H](c2ccc(F)cc2)c2ccc([C@@H](C)C(=O)O)cc2-c2ccc(C(F)(F)F)cc2)CC1.Cl needs its clearance filled in; supply it.
Result: 0.222

###

Assay: Tmax in dog at 10 mg/kg, po
Type: ADME, organism-based, Canis lupus familiaris
Parameters: dose 10 mg/kg, route oral
Settings: in vivo
readout: Tmax (h)
The response must be a number in h with no trailing unit.

Problem: Entry CC1CCN([C@H](c2ccc(F)cc2)c2ccc([C@@H](C)C(=O)O)cc2-c2ccc(C(F)(F)F)cc2)CC1.Cl needs its Tmax filled in; supply it.
Result: 1.3

###

Test: Half life in cynomolgus monkey at 10 mg/kg, po
Format: ADME, organism-based, Macaca fascicularis
Set-up: dose 10 mg/kg, route oral
Details: in vivo
readout: half-life (h)
The response must be a number in h with no trailing unit.

Problem: Entry CC1CCN([C@H](c2ccc(F)cc2)c2ccc([C@@H](C)C(=O)O)cc2-c2ccc(C(F)(F)F)cc2)CC1.Cl needs its half-life filled in; supply it.
Result: 25

###

Assay: Volume of distribution at steady state in cynomolgus monkey at 1 mg/kg, iv
Type: ADME, organism-based, Macaca fascicularis
Design: dose 1 mg/kg, route intravenous
Conditions: in vivo, read-out: Vdss
readout: Vd (L/kg)
The response must be a number in L/kg with no trailing unit.

Problem: Entry CC1CCN([C@H](c2ccc(F)cc2)c2ccc([C@@H](C)C(=O)O)cc2-c2ccc(C(F)(F)F)cc2)CC1.Cl needs its Vd filled in; supply it.
Result: 1.7

###

Experiment: Cmax in cynomolgus monkey at 10 mg/kg, po
Format: ADME, organism-based, Macaca fascicularis
Parameters: dose 10 mg/kg, route oral
Conditions: in vivo
readout: Cmax (ng/mL)
The response must be a number in ng/mL with no trailing unit.

Problem: Entry CC1CCN([C@H](c2ccc(F)cc2)c2ccc([C@@H](C)C(=O)O)cc2-c2ccc(C(F)(F)F)cc2)CC1.Cl needs its Cmax filled in; supply it.
Result: 5900

###

Test: Modulation of gamma-secretase in CHO cells overexpressing APP V717 mutant assessed as increase in amyloid beta38 level after 17 hrs by ELISA
Format: cell-based
Conditions: Cricetulus griseus
Consider the following compounds and their measured EC50 readings.
The response must be a number in nM with no trailing unit.

CC1CCN([C@H](c2ccc(F)cc2)c2ccc([C@@H](C)C(=O)O)cc2-c2ccc(C(F)(F)F)cc2)CC1: 150

Okay, now this compound:
Problem: Entry CC1CCN([C@@H](c2ccc(F)cc2)c2ccc([C@H](C)C(=O)O)cc2-c2ccc(C(F)(F)F)cc2)CC1 needs its EC50 filled in; supply it.
Result: 110

###

Target: Gamma-secretase
Experiment: Modulation of gamma-secretase in human H4 cells expressing wild type APP assessed as reduction in amyloid beta42 level
readout: pEC50
Note: pEC50 values are expressed as the negative base-10 logarithm of concentration in M.

Problem: Entry CC1CCN([C@H](c2ccc(F)cc2)c2ccc([C@@H](C)C(=O)O)cc2-c2ccc(C(F)(F)F)cc2)CC1 needs its pEC50 filled in; supply it.
Result: 7.15

###

Test: Drug uptake in CF1 mouse brain at 30 mg/kg, po after 4 hrs
Assay type: ADME, organism-based
Design: dose 30 mg/kg, route oral
Details: read-out: Drug uptake
In plain terms, low concentration at 4 h, meaning strictly below 10 µM, gives 1, and everything else gives 0.

The following molecules have reported results that may help.
CC1CCN(C(c2ccc(C(F)(F)F)nc2)c2ccc(C(C)C(=O)O)cc2-c2ccc(C(F)(F)F)cc2)CC1 (stereo not drawn): 0
CC1CCN(C(c2ccc(F)cc2)c2ccc(C(C)(C)C(=O)O)cc2-c2ccc(C(F)(F)F)cc2)CC1 (stereo not drawn): 0
CC1CCN(C(c2ccc(C(F)(F)F)cc2)c2ccc(C(C)C(=O)O)cc2-c2ccc(C(F)(F)F)cc2)CC1 (stereo not drawn): 0
CC1CCN(C(c2ccc(Cl)cc2)c2ccc(C(C)C(=O)O)cc2-c2ccc(C(F)(F)F)cc2)CC1 (stereo not drawn): 0

Problem: Dear colleague, could you confirm whether concentration at 4 h of CC1CCN(C(c2ccc(F)cc2)c2ccc(C(CC3CC3)C(=O)O)cc2-c2ccc(C(F)(F)F)cc2)CC1 (stereo not drawn) falls below 10 µM? Thanks.
Result: 0

Problem: Dear colleague, could you confirm whether concentration at 4 h of CC(C(=O)O)c1ccc(C(c2ccc(F)cc2)N2CCC(C)(C)CC2)c(-c2ccc(C(F)(F)F)cc2)c1 (stereo not drawn) falls below 10 µM? Thanks.
Result: 0

Problem: Dear colleague, could you confirm whether concentration at 4 h of CC(C(=O)O)c1ccc(C(c2ccc(F)cc2)N2CCC(C(F)(F)F)CC2)c(-c2ccc(C(F)(F)F)cc2)c1 (stereo not drawn) falls below 10 µM? Thanks.
Result: 0

Problem: Dear colleague, could you confirm whether concentration at 4 h of CC(C(=O)O)c1ccc(C(c2ccc(F)cc2)N2CC3CCCC3C2)c(-c2ccc(C(F)(F)F)cc2)c1 (stereo not drawn) falls below 10 µM? Thanks.
Result: 0

Problem: Dear colleague, could you confirm whether concentration at 4 h of CCC(C(=O)O)c1ccc(C(c2ccc(F)cc2)N2CCC(C)CC2)c(-c2ccc(C(F)(F)F)cc2)c1 (stereo not drawn) falls below 10 µM? Thanks.
Result: 0

Problem: Dear colleague, could you confirm whether concentration at 4 h of CC1CCN(C(c2ccc(F)cc2)c2ccc(C(C)C(=O)O)cc2-c2ccc(C(F)(F)F)cc2)CC1 (racemic) falls below 10 µM? Thanks.
Result: 0

###

Test: Half life in cynomolgus monkey at 1 mg/kg, iv
Assay type: ADME, organism-based, Macaca fascicularis
Set-up: dose 1 mg/kg, route intravenous
Settings: in vivo
readout: half-life (h)
The response must be a number in h with no trailing unit.

Problem: Entry CC1CCN([C@H](c2ccc(F)cc2)c2ccc([C@@H](C)C(=O)O)cc2-c2ccc(C(F)(F)F)cc2)CC1.Cl needs its half-life filled in; supply it.
Result: 11.2

###

Assay: Volume of distribution at steady state in rat at 1 mg/kg, iv
Assay type: ADME, organism-based
Design: dose 1 mg/kg, route intravenous
Settings: in vivo, read-out: Vdss
readout: Vd (L/kg)
The response must be a number in L/kg with no trailing unit.

Problem: Entry CC1CCN([C@H](c2ccc(F)cc2)c2ccc([C@@H](C)C(=O)O)cc2-c2ccc(C(F)(F)F)cc2)CC1.Cl needs its Vd filled in; supply it.
Result: 0.8

###

Target: Prostaglandin G/H synthase 1 (Homo sapiens, UniProt P23219)
Sequence (P23219 whole entry): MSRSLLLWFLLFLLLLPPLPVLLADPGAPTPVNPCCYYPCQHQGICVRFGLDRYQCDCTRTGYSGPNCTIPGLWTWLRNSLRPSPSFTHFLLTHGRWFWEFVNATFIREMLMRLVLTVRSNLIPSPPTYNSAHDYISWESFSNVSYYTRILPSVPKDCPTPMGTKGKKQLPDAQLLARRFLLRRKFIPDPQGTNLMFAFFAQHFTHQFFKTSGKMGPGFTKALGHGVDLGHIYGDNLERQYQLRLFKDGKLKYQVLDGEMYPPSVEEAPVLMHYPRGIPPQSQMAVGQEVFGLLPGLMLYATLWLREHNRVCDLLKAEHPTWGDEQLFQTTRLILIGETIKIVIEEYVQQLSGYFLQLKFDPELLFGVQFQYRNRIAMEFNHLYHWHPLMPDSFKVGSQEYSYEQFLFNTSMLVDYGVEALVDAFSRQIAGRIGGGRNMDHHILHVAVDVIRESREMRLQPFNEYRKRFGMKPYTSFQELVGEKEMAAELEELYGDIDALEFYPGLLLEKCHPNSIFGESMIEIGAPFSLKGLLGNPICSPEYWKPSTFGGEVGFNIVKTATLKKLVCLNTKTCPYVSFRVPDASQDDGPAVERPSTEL
readout: pIC50
Note: pIC50 values are expressed as the negative base-10 logarithm of concentration in M.

Problem: Entry CC1CCN([C@H](c2ccc(F)cc2)c2ccc([C@@H](C)C(=O)O)cc2-c2ccc(C(F)(F)F)cc2)CC1 needs its pIC50 filled in; supply it.
Result: 4.46

###

Test: Apparent permeability across human Caco2 cells
Type: ADME, cell-based
Details: Caco-2
readout: Papp (×10⁻⁶ cm/s)
The response must be a number in ×10⁻⁶ cm/s with no trailing unit.

Problem: Entry CC1CCN([C@H](c2ccc(F)cc2)c2ccc([C@@H](C)C(=O)O)cc2-c2ccc(C(F)(F)F)cc2)CC1 needs its Papp filled in; supply it.
Result: 43.8

###

Assay: Half life in rat at 1 mg/kg, iv
Format: ADME, organism-based
Set-up: dose 1 mg/kg, route intravenous
Details: in vivo
readout: half-life
Please give the number followed by its unit.

Problem: Entry CC1CCN([C@H](c2ccc(F)cc2)c2ccc([C@@H](C)C(=O)O)cc2-c2ccc(C(F)(F)F)cc2)CC1.Cl needs its half-life filled in; supply it.
Result: 7.2 h

###

Test: Half life in dog at 10 mg/kg, po
Type: ADME, organism-based, Canis lupus familiaris
Set-up: dose 10 mg/kg, route oral
Settings: in vivo
readout: half-life (h)
The response must be a number in h with no trailing unit.

Problem: Entry CC1CCN([C@H](c2ccc(F)cc2)c2ccc([C@@H](C)C(=O)O)cc2-c2ccc(C(F)(F)F)cc2)CC1.Cl needs its half-life filled in; supply it.
Result: 2.3
